System: CCRIS mutagenicity, Ames/micronucleus/aberration tests
Experiment: CCRIS mutagenicity studies
Conditions: Test System: AMES SALMONELLA TYPHIMURIUM; Strain/Indicator: TA98; Metabolic Activation: NONE; Method: STANDARD PLATE
Activity calls are given as the source filed them. How the calls were made is not given here.
Measured quantity: mutagenic call

Example molecules with recorded mutagenic call:
- Molecule: "O=[N+]([O-])c1cc2cc3ccc4cccc5ccc(c2o1)c3c45"
  mutagenic call: "active; positive"
- Molecule: "c1ccc2cc3cc4ccccc4cc3cc2c1"
  mutagenic call: "inactive; negative"
- Molecule: "c1ccc2c(c1)ccc1c2ccc2cccnc21"
  mutagenic call: "inactive; negative"
- Molecule: "Nc1cccc2cnsc12"
  mutagenic call: "active; positive"
- Molecule: "CN=C([S-])N/N=C/C(C)=N/NC([S-])=NC.[Cu+2]"
  mutagenic call: "inactive; negative"

Notebook: O=[N+]([O-])c1cccc(CO/N=C/c2nc3cc([N+](=O)[O-])ccc3n2Cc2ccc(Cl)cc2)c1 , mutagenic call read as inactive; negative

Notebook: CC1COCc2cc3c(cc21)C(C)(C)C(C)C3(C)C (stereo not given) , mutagenic call read as inactive; negative

Notebook: CCNCC#CC(C)(C)OC(=O)C(O)(c1ccccc1)C1CCCCC1 (stereo not given) , mutagenic call read as inactive; negative

Notebook: O=C1c2ccccc2-c2ccc([N+](=O)[O-])cc21 , mutagenic call read as active; positive

Notebook: O=[N+]([O-])c1ccc2ccc3ccc([N+](=O)[O-])cc3c2c1 , mutagenic call read as active; positive

Notebook: CC(C)=CCC/C(C)=C/CO , mutagenic call read as inactive; negative

Notebook: c1ccc(-c2ccccc2)cc1 , mutagenic call read as inactive; negative

Notebook: O=C(O)c1cc([N+](=O)[O-])cc2cccnc12 , mutagenic call read as active; positive

Notebook: O=C(Nc1cccc([N+](=O)[O-])c1)c1csc([N+](=O)[O-])c1 , mutagenic call read as active; positive

Notebook: O=C/C(Br)=C/c1ccccc1 , mutagenic call read as active; positive

----------
Test system: CCRIS mutagenicity, Ames/micronucleus/aberration tests
Assay: CCRIS mutagenicity studies
Details: Test System: AMES SALMONELLA TYPHIMURIUM; Strain/Indicator: TA100; Metabolic Activation: RAT, LIVER, S-9, AROCLOR 1254; Method: STANDARD PLATE
Description: The CCRIS database contains chemical records with carcinogenicity, mutagenicity, tumor promotion, and tumor inhibition test results. It was developed by the National Cancer Institute (NCI). Data are derived from studies cited in primary journals, current awareness tools, NCI reports, and other sources. Test results have been reviewed by experts in carcinogenesis and mutagenesis. CCRIS provides historical information from the years 1985 - 2011. It is no longer updated. […]
Activity calls are given as the source filed them. How the calls were made is not given here.
Please answer using one outcome listed in label 1 (active), label 0 (inactive)

- Compound: "c1ccc2c(c1)cc1ccc3cc4ccccc4c4ccc2c1c34"
  Label: "label 1"
- Compound: "Cc1ccccc1NS(=O)(=O)c1cccc2cccnc12"
  Label: "label 0"
- Compound: "O[C@H]1C=Cc2c(cc3ccc4cccc5ccc2c3c45)[C@@H]1O"
  Label: "label 1"
- Compound: "CCCCCCCCCCCCOC(=O)CCSCCC(=O)OCCCCCCCCCCCC"
  Label: "label 0"
- Compound: "OC(c1ccc(Cl)cc1)(c1ccc(Cl)cc1)C1CC1"
  Label: "label 0"
- Compound: "O=C(O)CCC(=O)N(O)c1ccc(Cl)cc1"
  Label: "label 1"
- Compound: "O=C1c2ccccc2-c2ccc([N+](=O)[O-])cc21"
  Label: "label 1"
- Compound: "C=C(C)C(=O)OCC"
  Label: "label 0"
- Compound: "Cc1ccc2ccccc2n1"
  Label: "label 1"
- Compound: "CCCCCCCCCC/C=C/C1CC(=O)OC1=O (centres undefined)"
  Label: "label 0"

## Input GET /call?item= c1ccc2c(c1)-c1ccc3ccc4cccc5cc-2c1c3c45 returns the recorded outcome of this test.
## Output label 1

## Input GET /call?item= CN(C)N=O returns the recorded outcome of this test.
## Output label 0
